# Tested on: LOX IMVI melanoma
# assay-procedure: NCI-60 one-dose screen, 48 h (100 = growth as untreated, 0 = no growth, -100 = all killed)
# condition-context: 10 µM unless noted
This is part of a sample that, as a whole, favours compounds with a hit. Of some 83,000 tested, about 20% had one in any assay.
# growth annotations
Number only, in %; omit the unit.

Example cases with answers are listed next.
>  <molecule>
COc1cc(OC)c(S(N)(=O)=O)cc1C(=O)/C=C/c1ccc(Cl)cc1

>  <growth (%)>
-50.4

$$$$
>  <molecule>
COc1ccc(NC(=O)CSc2nnc(-c3ccc4nc(-c5ccccc5)[nH]c4c3)o2)cc1

>  <growth (%)>
101

$$$$
>  <molecule>
CCOc1ccccc1NC1=C(Cl)C(=O)c2nc(C)ccc2C1=O

>  <growth (%)>
-82.2

$$$$
>  <molecule>
COc1cc(OC)cc(C(=O)Nc2sc3c(c2C(N)=O)CCC(=O)C3)c1

>  <growth (%)>
22.1

$$$$

-- ask Supply measured growth of CCc1cccc2c3c(sc12)C(c1ccc(Cl)cc1)C(C#N)=C(/N=C/c1ccc(Cl)cc1)O3 (stereo not given) in your reply.
-- reply 26.5

###

# growth annotations
# Tested on: LOX IMVI melanoma
# assay-procedure: NCI-60 one-dose screen, 48 h (100 = growth as untreated, 0 = no growth, -100 = all killed)
# condition-context: 10 µM unless noted
Compounds without any hit were thinned out: in the full panel of roughly 83,000, 20% have a hit.
Number only, in %; omit the unit.

Example cases with answers are listed next.
>  <compound-smiles>
C#C[C@]1(O)CC[C@H]2[C@@H]3CC=C4c5sc(-c6ccc7c(c6)OCO7)nc5CC[C@]4(C)[C@H]3CC[C@@]21C

>  <growth (%)>
-40.1

$$$$
>  <compound-smiles>
O=C(NCCN1CCCC1)c1ccc(-c2nc3ccc4[nH]ncc4c3c3c2CCCC3)cc1

>  <growth (%)>
-89.6

$$$$
>  <compound-smiles>
C=C(C)[C@@H]1CC[C@]2(COC)CC[C@]3(C)[C@H](CC[C@@H]4[C@@]5(C)CCCNC(C)(C)[C@@H]5CC[C@]43C)[C@@H]12

>  <growth (%)>
-90.8

$$$$

Could you now look at the following molecule, please?
-- ask Supply measured growth of N#Cc1c(-c2cccs2)cc(-c2cnccn2)nc1SCC(=O)Nc1ccc(Br)cc1 in your reply.
-- reply 53.3

###

# Tested on: NCI-H460 lung
# assay-procedure: NCI-60 one-dose screen, 48 h (100 = growth as untreated, 0 = no growth, -100 = all killed)
# condition-context: 10 µM unless noted
The panel holds about 83,000 compounds, 20% with a hit somewhere; the sample as a whole holds those more often.
# growth annotations
Number only, in %; omit the unit.

>  <compound>
COc1cc(Cn2cc3c(c2)-c2onc(CN4CCCC4)c2CC3)cc(OC)c1OC

>  <target-of-assay>
NCI-H460 lung

>  <growth (%)>
109

$$$$
>  <compound>
CCn1c(SCC(=O)Nc2cccc(C(=O)/C=C/c3ccc(C)cc3)c2)nc2ccccc2c1=O

>  <target-of-assay>
NCI-H460 lung

>  <growth (%)>
98.2

$$$$
>  <compound>
CC1(C)CC[C@]2(C(=O)O)CC[C@]3(C)C(=CC[C@@H]4[C@@]5(C)CC/C(=N\OCCC#N)C(C)(C)[C@@H]5CC[C@]43C)[C@@H]2C1

>  <target-of-assay>
NCI-H460 lung

>  <growth (%)>
93.7

$$$$

-- ask Supply measured growth of CC1(C)NCCC[C@]2(C)[C@H]3C/C(=N\O)C4[C@@H]5C[C@@](C)(CO)CC[C@]5(C)CC[C@@]4(C)[C@]3(C)CC[C@@H]12 (some centres not stated) in your reply.
-- reply 100

-- ask Supply measured growth of Nc1cc(-c2c[nH]c3ccc(Br)cc23)nc2cc(-c3c[nH]c4ccc(Br)cc34)nn12 in your reply.
-- reply -24.8

-- ask Supply measured growth of COc1cc2nc(Cl)nc(Nc3cccc(C4=Nc5c(N)nc(N)nc5NC(c5ccc(Cl)cc5)C4)c3)c2cc1OC (configuration not stated) in your reply.
-- reply 2.91

-- ask Supply measured growth of Cc1ccc(NC(=O)N[C@@H](Cc2cc(F)cc(F)c2)C(=O)NC2C(=O)N3C[C@H](O)C[C@H]3C(=O)N3CCCC[C@H]3C(=O)N[C@@H](CO)C(=O)N3C[C@H](C)C[C@H]3C(=O)O[C@H]2C)c(F)c1 (some centres not stated) in your reply.
-- reply 37.3

-- ask Supply measured growth of COc1cc(-c2ccc3ncnc(NCc4ccccc4)c3c2)cnc1OC in your reply.
-- reply 69.1

-- ask Supply measured growth of O=C(O)c1ccc(-n2cc(CNc3cc(F)c(F)c(F)c3)c(-c3ccc(F)cc3)n2)cc1 in your reply.
-- reply 97.1

-- ask Supply measured growth of COc1ccc(/C(N)=N/C(N)=N/c2nc3ccccc3s2)cc1 in your reply.
-- reply 82.5

-- ask Supply measured growth of Cc1ccc(NC(=S)NNC(=S)Nc2ccc(C)cc2)cc1 in your reply.
-- reply 112

-- ask Supply measured growth of COc1ccc(-c2cc(-c3ccc(Cl)cc3)c(C#N)c(=O)n2Cc2ccc(C(=O)O)cc2)cc1 in your reply.
-- reply 92.4

-- ask Supply measured growth of N=c1c2cc(-c3ccccc3)oc2ncn1/N=C/c1ccc(Cl)cc1 in your reply.
-- reply 6.07

-- ask Supply measured growth of COc1c(N2CC3CCCNC3C2)c(F)cc2c(=O)c(C(=O)N/N=C/c3c[nH]c4ccccc34)cn(C3CC3)c12 (configuration not stated) in your reply.
-- reply 107

-- ask Supply measured growth of N#Cc1cnc2ccc(-c3cnc4[nH]ncc4c3)cc2c1N1CCc2cc(F)c(Cl)cc21 in your reply.
-- reply 3.18

-- ask Supply measured growth of CCCCCc1ccc(S(=O)(=O)Nc2cccc(-c3csc(NC(=O)CN4CCN(CCO)CC4)n3)c2)cc1 in your reply.
-- reply 44.4

-- ask Supply measured growth of CCO/C=N/C1=C(C#N)C(c2ccc(OC)cc2)c2sc3c(C)cccc3c2O1 (configuration not stated) in your reply.
-- reply 9.13
